- assay-overview: NCI Yeast Anticancer Drug Screen. Data for the cln2 rad14 strain (AID 165);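 also: 0% = growth equal to vehicle treated cultures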
- conditions-used: S. cerevisiae cln2 rad14 strain, at 50.0 µM, active compounds read high
This is part of a sample that, as a whole, favours compounds with a hit. Of some 79,000 tested, about 15% had one in any assay.
Task for the reader: assign each of the following molecules its reported growth inhibition.
Number only, in %; omit the unit.

Query: Which growth inhibition is listed for O=C1CCC(c2n[nH]c(=S)o2)N1 (configuration not stated) ?
Result: -6.65

Query: Again, but for CC(=O)OC(C(=O)Nc1ccc(Br)cc1)c1ccccc1 (configuration not stated)
Result: -35.5

Query: What do we get for Clc1nc(N2CCCCC2)c2[nH]cnc2n1 ?
Result: -9.8

Query: Follow-up item: CC1(O)CC(C(F)(F)F)(C(F)(F)F)OC1=O (configuration not stated)
Result: -28.9

Query: Similarly, CC1(C)C2CC=C(/C=N\Nc3ccc([N+](=O)[O-])cc3[N+](=O)[O-])C1C2 (configuration not stated) ?
Result: -3.35

Query: Also check COc1cccc(C(F)(F)F)c1
Result: -6.85

Query: Repeat for the following molecule: N#CC(C#N)=CN1CCCC1
Result: -12.3

Query: // repeat for Cc1cc(C)c(C(=O)CCC(=O)O)c(C)c1 and report
Result: 17.9

Query: What would you report for CCCNC1=C(C(=O)OCC)C(=O)CO1 ?
Result: 15.6

Query: Now the same for Cc1nc(-c2cccnc2)sc1C(=O)/C=C/c1cccc([N+](=O)[O-])c1
Result: 32.2

Query: Repeat with N#CC(C(=O)/C(=N\NC(N)=O)C(C#N)c1ccc(Cl)cc1)c1ccc(Cl)cc1 (configuration not stated)
Result: 2.4

Query: Now the molecule COC(=O)/C(=N\NC(C)(C)C)C(C(=O)OC)C(=O)C(=O)Nc1cc(Cl)ccc1Cl (configuration not stated)
Result: 1

* * *

- assay-overview: NCI Yeast Anticancer Drug Screen. Data for the rad50 strain (AID 155);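 also: 0% = growth of vehicle-only cultures of the same strain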
- conditions-used: S. cerevisiae rad50 strain growth inhibition; at 50.0 µM; active compounds read high
The panel holds about 79,000 compounds, 15% with a hit somewhere; the sample as a whole holds those more often.
Hi there, I'd appreciate the recorded growth inhibition for every entry that follows.
Return type: number; implicit unit %.

Query: What value of growth inhibition has been reported for the following compound? CC(=O)NC1=C(Sc2ccc(Cl)cc2)C(=O)c2ccccc2C1=O
Result: 56.2

Query: Try this compound next: CC(C)=CCC/C(C)=C\COC=O
Result: 23

Query: Then what about the compound CN(C)c1ccc(/C=N/NS(=O)(=O)c2ccc(N)cc2)cc1 ?
Result: -4.4

Query: Please do the same for CCOC(=O)C1=CCOc2cc(N(C)C)ccc21 as well.
Result: -9.25

Query: # repeat for COc1cc2c(c(OC)c1OC)-c1ccc(S(C)(=O)=O)c(=O)cc1[C@@H](NC(C)=O)CC2
Result: 3.25

Query: Lookup COc1cc(C)c2c(c1)C=C[C@@H]1[C@@H]2CC[C@]2(C)C(=O)CC[C@@H]12
Result: -10.1

Query: Item: O=C(Nc1cccc(Cl)c1Cl)c1cc(/C=C/c2ccc([N+](=O)[O-])cc2)on1
Result: -21.2

Query: Here is the next compound: CCCCCCCCCCCCn1c2nc(=O)[nH]c(=O)c-2nc2ccccc21
Result: -3.35

Query: Same again, this time with O=C1CCC(c2nc3ccccc3[nH]2)N1Cc1cccs1 (stereo not drawn)
Result: -29.4

Query: Thanks! And CC(=O)OCC1OC(OC(C)=O)C(NC(=O)CN(Cc2ccccc2)S(C)(=O)=O)C(OC(C)=O)C1OC(C)=O (stereo not drawn) ?
Result: -8.6

Query: # repeat for CN(/N=C/c1ccccn1)C1=NCCCCN1
Result: -33.5

Query: Try this compound next: CCOC(=O)/C(C#N)=C(\CC)c1ccccc1
Result: -8.5

Query: Input Cn1nc(-c2cccc(N)c2)cc1Cl
Result: -17.6

* * *

- assay-overview: NCI Yeast Anticancer Drug Screen. Data for the sgs1 mgt1 strain (AID 161);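 also: 0% = growth of cultures given vehicle only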
- conditions-used: S. cerevisiae sgs1 mgt1 strain, at 50.0 µM, active compounds read high
This is part of a sample that, as a whole, favours compounds with a hit. Of some 79,000 tested, about 15% had one in any assay.
Would you mind telling me the reported growth inhibition of each entry?
Number in %, nothing else.

Query: Field request: growth inhibition | item: C=CCON(C)c1ccc([N+](=O)[O-])cc1[N+](=O)[O-]
Result: 16.1

Query: Follow-up item: CCO/C=C1\SC(=S)N(CCc2ccc(OC)c(OC)c2)C1=O
Result: -10.9

Query: Further, for O=C(/C=C\c1ccc(/C=C\C(=O)c2ccccc2O)cc1)c1ccccc1O ?
Result: -8.75

* * *

- assay-overview: NCI Yeast Anticancer Drug Screen. Data for the sgs1 mgt1 strain (AID 161);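 also: 0% = growth of cultures given vehicle only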
- conditions-used: S. cerevisiae sgs1 mgt1 strain, at 50.0 µM, active compounds read high
This is part of a sample that, as a whole, favours compounds with a hit. Of some 79,000 tested, about 15% had one in any assay.
Field: growth inhibition. Provide a value for each of the molecules that follow.
Answer in %, number only, no unit symbol.

Query: Which measured growth inhibition value corresponds to CCOC(=O)/C=C\n1c(=O)cc(C)c2ccccc21 ?
Result: 7.45

Query: // repeat for COc1cc(C(c2ccc(N(Cc3ccccc3)Cc3ccccc3)cc2NC(C)=O)c2ccc(N(Cc3ccccc3)Cc3ccccc3)cc2NC(C)=O)ccc1O and report
Result: -11.4

Query: What about this molecule? CC1CC12OC(=O)N(c1cc(Cl)cc(Cl)c1)C2=O (configuration not stated)
Result: 14.3

Query: Would you mind doing CC1CC(c2ccccc2)Nc2nc3ccccc3n21 (configuration not stated) as well?
Result: -4.7

Query: What would you report for O=C(O)c1cccc(S(=O)(=O)NCCO)c1 ?
Result: -20.8

Query: And for CN(C)C=NCc1ccc2c(c1)OCO2 ?
Result: -13.2

Query: One more molecule: O=c1[nH]cc(S)c(=O)[nH]1
Result: -15.4

Query: Now give it for Cc1nc(Cc2n[nH]c(C)n2)n[nH]1 too.
Result: 11.9

Query: Let us now turn to COC1CCCCC(=NNC(N)=O)CCCC1 (configuration not stated)
Result: -13.2

Query: For COc1ccc(NC(=O)CCC2=CC(=O)CC(c3ccccc3)O2)cc1 (configuration not stated) then?
Result: 2.35

Query: // repeat for Clc1ccc(NC2=NCCN=C(Nc3ccc(Cl)c(Cl)c3)SS2)cc1Cl and report
Result: -14.7

Query: Please give the result for CCOC(=O)C(CCC(C)(C)SCc1ccccc1)(NC(C)=O)C(=O)OCC too.
Result: 1.45

Query: Another: COC(=O)c1ccc(OC(=O)Nc2ccc(SC)cc2)cc1
Result: 25.4

Query: Would you mind doing O=[N+]([O-])c1cccc(CC(=S)N2CCOCC2)c1 as well?
Result: -8.9

Query: Try O=C1O[C@@H]2C3COC(O)[C@](O)(O3)[C@@H]2/C1=C\c1ccc(O)cc1 (some centres not stated) next.
Result: 8.4

Query: Then this molecule: COc1cccc2c1N=c1c(Cl)c3c(c(Cl)c1O2)=Nc1c(OC)cccc1O3
Result: -0.25

Query: Item: COC(=O)c1ccccc1N=NNc1ccc(C)c(Cl)c1
Result: -1.2

Query: Follow-up entry: N#COc1ccc(-c2ccccc2)cc1
Result: -12.2

Query: Continue with Cc1ccc(C2(c3ccc(Cl)cc3)c3ccccc3C3=NCCN32)cc1 (configuration not stated)
Result: 25.6

Query: And C/C=C/c1nc2ccccc2[nH]1 ?
Result: -3

Query: Subsequent entry: CCC(C)CCC(=O)OCC(=O)c1ccc(-c2ccccc2)cc1 (configuration not stated)
Result: 14.8

Query: Same for O=C1C(c2cnc3c(n2)CCC=C3)=C(O)c2ccccc21
Result: -6.6

Query: Likewise for CSC1=NNC(c2ccccc2)=C(c2ccccc2)S1 ?
Result: 52

Query: Okay, and Cn1cnc([N+](=O)[O-])c1/N=C/c1ccccc1 ?
Result: -3.95

Query: Next molecule: CC(CCl)NC(=O)Nc1cccc2c1CCCC2 (configuration not stated)
Result: -3.9

Query: Same question for COc1ccc(NC(=O)Oc2ccc(C#N)cc2)cc1 please.
Result: 5.5

Query: How about this molecule: COc1cc2c(cc1O)C1Cc3cc(O)c(OC)cc3C(C2)N1C (configuration not stated)
Result: -30.2

Query: Entry OC12CC/C(=N/OCc3ccccc3)CC1c1ccccc12 (configuration not stated) please
Result: -29.8

Query: Also check O=S1(=O)OC(c2ccc(O)cc2)(c2ccc(O)cc2)c2ccccc21
Result: 3.1

Query: Next molecule up: COC(=O)C(C(=O)C(=O)Nc1cccc([N+](=O)[O-])c1)c1nc2ccc([N+](=O)[O-])cc2[nH]c1=O (configuration not stated)
Result: -10.2

Query: And Cc1ccc(S)c(C(O)(C(F)(F)F)C(F)(F)F)c1 ?
Result: 11.7

Query: Lookup NNc1nc2ccccc2[nH]1
Result: -34.9

Query: What do you have for Fc1nc2nc(C(F)(F)F)[nH]c2nc1F ?
Result: -23.9

Query: Entry to check: COc1ccc2c(c1)C/C(=C\c1cccc3ccccc13)C2=O
Result: -0.15

Query: Check C[CH2][Ge]([CH2]C)[CH2]C.C[CH2][Ge]([CH2]C)[CH2]C.C[CH2][Ge]([CH2]C)[S][Ge]([CH2]C)[CH2]C too.
Result: 52.7

Query: What do you get for O=C(O)c1c[nH]c2ccc([N+](=O)[O-])cc2c1=O ?
Result: -11.9

Query: Next entry: CCOC(=O)C(=CNc1ccc(S(N)(=O)=O)cc1)C(=O)OCC
Result: -31.1

Query: Queued: N#Cc1nc(CC(=O)c2ccccc2Cl)c(CC(=O)c2ccccc2Cl)nc1C#N
Result: 5.6

Query: Would you kindly repeat that for C=C(C)CCC[C@@H](C)C1CCC2(C)[C@@H]3CCC4C(C)(C)[C@@H](O)CC[C@@]45C[C@@]35CC[C@]12C (some centres not stated) ?
Result: 25.4

Query: Let us now turn to Cc1ccc(Cc2nn(C)c(=O)n2N)cc1
Result: 18.6

Query: Field entry: CC(=O)CC(=O)Nc1cc(C(F)(F)F)ccc1Cl
Result: -19.1

Query: Can you handle O=C(O)C(Cc1c[nH]c2ccccc12)Nc1ccc([N+](=O)[O-])cc1[N+](=O)[O-] (configuration not stated) next?
Result: 13.8
